pKd: −log10 of the molar value.
Reported values: pKd for Angiopoietin-1 receptor (Homo sapiens), one per item.
Reported property: pKd

Worked examples, 3 molecules total:
- Record smiles: "O=C(Nc1cccc(-c2nn3ncccc3c2-c2ccnc(Nc3cccnc3)n2)c1)c1c(F)cccc1F"
  Subject of test: "Angiopoietin-1 receptor (Homo sapiens)"
  pKd: 5.00
- Record smiles: "CCNc1nccc(-c2c(-c3ccc(F)cc3)ncn2C2CCN(C)CC2)n1"
  Subject of test: "Angiopoietin-1 receptor (Homo sapiens)"
  pKd: 5.00
- Record smiles: "CCOC(=O)N1CCC(n2cnc(-c3ccc(F)cc3)c2-c2ccnc(N)n2)CC1"
  Subject of test: "Angiopoietin-1 receptor (Homo sapiens)"
  pKd: 5.00

a. CC(C)c1nc(-c2ccc(F)c(NS(=O)(=O)c3c(F)cccc3F)c2)c(-c2ccnc(Nc3ccc(N4CCOCC4)nc3)n2)s1
b. O=C(Nc1cccc(-c2nn3ncccc3c2-c2ccnc(Nc3cccc(C(F)(F)F)c3)n2)c1)c1c(F)cccc1F
c. CCc1nc(-c2cccc(N(C)S(=O)(=O)c3ccccc3)c2)c(-c2ccnc(Nc3ccc(N4CCN(C(C)=O)CC4)nc3)n2)s1
d. COc1cc(Nc2nccc(-c3c(-c4cccc(NC(=O)c5c(F)cccc5F)c4)nn4ncccc34)n2)cc(OC)c1OC
List by increasing pKd. Please, when replying, give the labels in the order that was requested. b, c, d, a
(b: 5.00, c: 5.49, d: 6.70, a: 7.62)
